Measured Percent Effect by item
biological target: Protein translocase subunit SecA (Escherichia coli (strain K12)) (UniProt P10408); assay: Assay to Identify E. coli SecA ATPase Inhibitors; format: functional; parameters: scale not given: direction of the effect not stated beside the values; conditions: 30 µM
Sequence (P10408 whole entry): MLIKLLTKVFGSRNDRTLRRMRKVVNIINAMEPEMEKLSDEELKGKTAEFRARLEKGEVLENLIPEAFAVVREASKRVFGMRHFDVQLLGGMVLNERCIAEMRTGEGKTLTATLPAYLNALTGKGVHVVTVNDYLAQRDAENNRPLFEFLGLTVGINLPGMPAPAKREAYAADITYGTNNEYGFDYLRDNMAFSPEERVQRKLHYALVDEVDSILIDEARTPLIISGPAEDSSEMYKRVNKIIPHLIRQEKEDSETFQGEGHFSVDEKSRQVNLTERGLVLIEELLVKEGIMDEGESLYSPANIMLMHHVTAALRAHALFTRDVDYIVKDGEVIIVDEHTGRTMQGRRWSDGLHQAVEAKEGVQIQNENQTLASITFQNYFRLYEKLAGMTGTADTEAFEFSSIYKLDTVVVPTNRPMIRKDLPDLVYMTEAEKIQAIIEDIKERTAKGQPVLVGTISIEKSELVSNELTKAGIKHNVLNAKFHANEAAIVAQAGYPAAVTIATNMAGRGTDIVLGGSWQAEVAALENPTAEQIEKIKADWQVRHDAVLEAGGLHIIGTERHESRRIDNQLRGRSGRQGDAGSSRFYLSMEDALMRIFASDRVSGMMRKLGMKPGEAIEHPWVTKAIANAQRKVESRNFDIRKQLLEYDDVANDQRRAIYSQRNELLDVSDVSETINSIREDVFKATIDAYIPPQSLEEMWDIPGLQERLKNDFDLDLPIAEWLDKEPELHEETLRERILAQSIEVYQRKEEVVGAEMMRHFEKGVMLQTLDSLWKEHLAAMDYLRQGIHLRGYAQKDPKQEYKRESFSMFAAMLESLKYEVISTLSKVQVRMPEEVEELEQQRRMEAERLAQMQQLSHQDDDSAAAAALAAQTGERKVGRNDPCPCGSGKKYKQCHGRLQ
Potency and affinity values are given separately.
measurementName: Percent Effect (%)

* CCOc1ccc(C#N)cc1NCC(=O)Nc1cc(F)ccc1F | -4.77
* CC(C)N(C)CC(=O)NC1CCc2nccn2C1 (configuration not stated) | -0.518
* Cc1noc(C)c1CN(C)CC1CCCN1c1cccnn1 (configuration not stated) | -3.03
* CC(C)c1nc(C2CCCN2CCc2ccncc2)no1 (configuration not stated) | -3.81
* O=C1CC(N(C(=O)c2ccc3[nH]c4c(c3c2)CCCC4)C2CC2)C(=O)N1 (configuration not stated) | -1.37
* CCc1n[nH]c(C2CN(Cc3nnc(C4CC4)n3C)CCO2)n1 (configuration not stated) | 0.518
* CC(C)(CO)NC(=O)C1CCC(=O)N(Cc2ccc(Cl)cc2)C1 (configuration not stated) | -3.58
* CN(Cc1ccc2c(c1)OCCO2)C(=O)NCCc1cnn(C)c1 | -2.93
* NC(=O)COc1cccc(C(=O)Nc2cnc3n2CCCC3)c1 | -4.34
* O=C(c1ccc[nH]1)N1CCn2cc(CN3CCCC3)nc2C1 | -5.65
* O=C(Cc1ccsc1)NCC1OCCc2cn(CC3CC3)nc21 (configuration not stated) | -2.34
* O=S(=O)(Cc1ccccc1)N1CCCn2cnc(CN3CCCC3)c2C1 | -3.85
